Target: CB2 receptors (Homo sapiens)
Sequence (P34972 whole entry): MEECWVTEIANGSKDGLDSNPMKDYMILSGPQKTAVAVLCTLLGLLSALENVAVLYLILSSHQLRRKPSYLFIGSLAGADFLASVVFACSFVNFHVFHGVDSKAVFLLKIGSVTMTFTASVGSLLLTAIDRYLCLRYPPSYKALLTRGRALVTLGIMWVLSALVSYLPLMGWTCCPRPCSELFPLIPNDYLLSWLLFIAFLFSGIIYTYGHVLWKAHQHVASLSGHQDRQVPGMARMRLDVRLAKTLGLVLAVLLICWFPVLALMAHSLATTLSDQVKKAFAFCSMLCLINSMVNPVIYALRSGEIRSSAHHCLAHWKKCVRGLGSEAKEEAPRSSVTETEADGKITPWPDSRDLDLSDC
Assay: Signal transduction in CHO-CB2-CREluc cells (luciferase; forskolin, AM630)
MEASURED PROPERTY: Agonism and antagonism at CB2

Reference set (5 entries):
# get_value(readout='Agonism and antagonism at CB2', item= C=C(C)[C@@H]1CCC(C)=C[C@H]1c1c(O)cc(CCCCC)c(C(=O)OCC(O)CO)c1O (stereo partly drawn) [Compound IV, Glyceryl cannabidiolate] ) +

Now give it for C=C(C)[C@@H]1CCC(C)=C[C@H]1c1c(O)cc(CCCCC)c(C(=O)OCC(O)CCC)c1O (stereo partly drawn) [Compound V, 2-hydroxypentyl cannabidiolate] too. +

Next record, please: C=C(C)[C@@H]1CCC(C)=CC1c1c(O)cc(CCCCC)c(C(=O)OCCNS(C)(=O)=O)c1O (stereo partly drawn) [XIII, N-Methyl-sulfonyl cannabidiolate] +

Cool, now C=C(C)[C@@H]1CCC(C)=C[C@H]1c1c(O)cc(CCCCC)c(C(=O)OCCO)c1O [Compound III, 2-hydroxyethyl cannabidiolate] +

Likewise for C=C(C)[C@@H]1CCC(C)=CC1c1c(O)cc(CCCCC)c(C(=O)OC2CCCCC2)c1O (stereo partly drawn) [XII, Cyclohexyl cannabidiolate] ? 0

Others:
# lookup: Agonism and antagonism at CB2 of C=C(C)C1CCC(C)=CC1c1c(O)cc(CCCCC)c(C(=O)OCCCCCC)c1O (stereo not drawn) [Hexyl cannabidiolate] +

----------
Below are compounds with their pKi as measured on CB1 receptors (Homo sapiens, UniProt P21554).
Sequence (P21554 whole entry): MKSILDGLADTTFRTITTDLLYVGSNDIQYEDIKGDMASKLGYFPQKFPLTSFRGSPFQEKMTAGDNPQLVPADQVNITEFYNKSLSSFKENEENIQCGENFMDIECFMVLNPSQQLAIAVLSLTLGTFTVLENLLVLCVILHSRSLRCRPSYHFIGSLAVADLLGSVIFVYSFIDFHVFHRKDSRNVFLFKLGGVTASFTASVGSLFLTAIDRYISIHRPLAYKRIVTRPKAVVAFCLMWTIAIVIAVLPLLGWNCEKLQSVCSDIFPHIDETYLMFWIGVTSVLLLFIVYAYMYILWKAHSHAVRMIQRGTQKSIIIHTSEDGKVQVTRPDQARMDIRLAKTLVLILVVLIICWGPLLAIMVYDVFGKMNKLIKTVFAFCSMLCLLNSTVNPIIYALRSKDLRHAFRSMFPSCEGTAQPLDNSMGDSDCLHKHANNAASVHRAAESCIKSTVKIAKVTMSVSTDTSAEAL
In plain terms, pKi is the concentration in mol/L turned into minus its base-10 logarithm.

Entry C=C(C)[C@@H]1CCC(C)=C[C@H]1c1c(O)cc(CCCCC)c(C(=O)OCC(O)CO)c1O (stereo partly drawn) [Compound IV, Glyceryl cannabidiolate] has what pKi? 5.66

Also C=C(C)[C@@H]1CCC(C)=CC1c1c(O)cc(CCCCC)c(C(=O)OC2CCCCC2)c1O (stereo partly drawn) [XII, Cyclohexyl cannabidiolate] , if possible. 6.27

And for C=C(C)[C@@H]1CCC(C)=CC1c1c(O)cc(CCCCC)c(C(=O)OCCCCCC)c1O (stereo partly drawn) [XI, Hexyl cannabidiolate] ? 6.27

What about this compound? C=C(C)[C@@H]1CCC(C)=C[C@H]1c1c(O)cc(CCCCC)c(C(=O)OCCO)c1O [Compound III, 2-hydroxyethyl cannabidiolate] 5.41

Continue with C=C(C)[C@@H]1CCC(C)=C[C@H]1c1c(O)cc(CCCCC)c(C(=O)OCC(O)CCC)c1O (stereo partly drawn) [Compound V, 2-hydroxypentyl cannabidiolate] 6.27

Further cases:
Which pKi value is on record for C=C(C)[C@@H]1CCC(C)=CC1c1c(O)cc(CCCCC)c(C(=O)OCCNS(C)(=O)=O)c1O (stereo partly drawn) [XIII, N-Methyl-sulfonyl cannabidiolate] ? 6.27

----------
Target: CB2 receptors (Homo sapiens)
Experiment: Competition binding study with [3H]-CP55940 in CB2 receptor transfected cell membranes
Design: purchased RBXCB2M400UA; host or cells: human cells (transfected)
Details: screening with a single high dose; displacement of [3H]-CP55940
MEASURED PROPERTY: CB2 (% binding) (%)
Lab book: enter the figure in %, no units written.

Worked set:
Hi! What's the reported CB2 (% binding) for C=C(C)[C@@H]1CCC(C)=CC1c1c(O)cc(CCCCC)c(C(=O)OCCCCCC)c1O (some centres unmarked) [XI, Hexyl cannabidiolate] on CB2 receptors (Homo sapiens)? 97.2

Another compound to look at: C=C(C)[C@@H]1CCC(C)=CC1c1c(O)cc(CCCCC)c(C(=O)OCCNS(C)(=O)=O)c1O (some centres unmarked) [XIII, N-Methyl-sulfonyl cannabidiolate] 104.9

Now try C=C(C)[C@@H]1CCC(C)=CC1c1c(O)cc(CCCCC)c(C(=O)OC2CCCCC2)c1O (some centres unmarked) [XII, Cyclohexyl cannabidiolate] . 99.2

One more compound: C=C(C)[C@@H]1CCC(C)=C[C@H]1c1c(O)cc(CCCCC)c(C(=O)OCCO)c1O [Compound III, 2-hydroxyethyl cannabidiolate] 90.3

Now examine the next entry.
Recorded CB2 (% binding) for C=C(C)[C@@H]1CCC(C)=C[C@H]1c1c(O)cc(CCCCC)c(C(=O)OCC(O)CO)c1O (some centres unmarked) [Compound IV, Glyceryl cannabidiolate] with CB2 receptors (Homo sapiens), please? 101.6

----------
Biological target: CB1 receptors (Homo sapiens)
Assay: biochemical
Assay type: binding
Set-up: purchased RBHCB1M400UA; host or cells: human cells (transfected)
Settings: screening with a single high dose; displacement of [3H]-CP55940
# note: exactly 80% is not below, so it is Not satisfied; use Satisfied for CB1 (% binding) strictly under it

// known answers, use as guide
Confirm or reject: CB1 (% binding) of C=C(C)[C@@H]1CCC(C)=CC1c1c(O)cc(CCCCC)c(C(=O)OCCNS(C)(=O)=O)c1O (stereo partly drawn) [XIII, N-Methyl-sulfonyl cannabidiolate] lies strictly below 80% Not satisfied

What do you get for C=C(C)[C@@H]1CCC(C)=C[C@H]1c1c(O)cc(CCCCC)c(C(=O)OCCO)c1O [Compound III, 2-hydroxyethyl cannabidiolate] ? Satisfied

Do the same for C=C(C)[C@@H]1CCC(C)=C[C@H]1c1c(O)cc(CCCCC)c(C(=O)OCC(O)CO)c1O (stereo partly drawn) [Compound IV, Glyceryl cannabidiolate] please Not satisfied

---
Is 80% strictly greater than the molecule's reported CB1 (% binding)? molecule: C=C(C)[C@@H]1CCC(C)=CC1c1c(O)cc(CCCCC)c(C(=O)OCCCCCC)c1O (stereo partly drawn) [XI, Hexyl cannabidiolate] Not satisfied

----------
Target: CB2 receptors (Homo sapiens)
Decide using Ki alone. Strictly below 70 nM: TRUE. Equal to or above 70 nM: FALSE.

Example results:
Lab note: Ki threshold 70 nM. Does this compound come in strictly under it? C=C(C)[C@@H]1CCC(C)=CC1c1c(O)cc(CCCCC)c(C(=O)OCCNS(C)(=O)=O)c1O (some centres unmarked) [XIII, N-Methyl-sulfonyl cannabidiolate] TRUE

Same question for C=C(C)[C@@H]1CCC(C)=CC1c1c(O)cc(CCCCC)c(C(=O)OC2CCCCC2)c1O (some centres unmarked) [XII, Cyclohexyl cannabidiolate] please. TRUE

For C=C(C)[C@@H]1CCC(C)=C[C@H]1c1c(O)cc(CCCCC)c(C(=O)OCC(O)CO)c1O (some centres unmarked) [Compound IV, Glyceryl cannabidiolate] then? FALSE

Continuing:
Is 70 nM strictly greater than the compound's reported Ki? compound: C=C(C)[C@@H]1CCC(C)=C[C@H]1c1c(O)cc(CCCCC)c(C(=O)OCCO)c1O [Compound III, 2-hydroxyethyl cannabidiolate] FALSE

Another compound to check: C=C(C)[C@@H]1CCC(C)=CC1c1c(O)cc(CCCCC)c(C(=O)OCCCCCC)c1O (some centres unmarked) [XI, Hexyl cannabidiolate] FALSE

----------
Target: CB1 receptors (Homo sapiens)
Assay: Signal transduction in CHO-CB1-CREluc cells (luciferase; agonism, and antagonism against WIN)
MEASURED PROPERTY: Agonism and antagonism at CB1

Some solved cases for reference:
Entry under review: C=C(C)[C@@H]1CCC(C)=C[C@H]1c1c(O)cc(CCCCC)c(C(=O)OCCO)c1O [Compound III, 2-hydroxyethyl cannabidiolate] . Reported Agonism and antagonism at CB1? −

What about C=C(C)[C@@H]1CCC(C)=C[C@H]1c1c(O)cc(CCCCC)c(C(=O)OCC(O)CO)c1O (stereo partly drawn) [Compound IV, Glyceryl cannabidiolate] ? +

Now consider C=C(C)[C@@H]1CCC(C)=CC1c1c(O)cc(CCCCC)c(C(=O)OCCNS(C)(=O)=O)c1O (stereo partly drawn) [XIII, N-Methyl-sulfonyl cannabidiolate] and answer again. −

Check C=C(C)C1CCC(C)=CC1c1c(O)cc(CCCCC)c(C(=O)OCCCCCC)c1O (stereo not drawn) [Hexyl cannabidiolate] too. +

Try the compound C=C(C)[C@@H]1CCC(C)=C[C@H]1c1c(O)cc(CCCCC)c(C(=O)OCC(O)CCC)c1O (stereo partly drawn) [Compound V, 2-hydroxypentyl cannabidiolate] −

// next item, Agonism and antagonism at CB1 requested
What value of Agonism and antagonism at CB1 has been reported for the following compound? C=C(C)[C@@H]1CCC(C)=CC1c1c(O)cc(CCCCC)c(C(=O)OC2CCCCC2)c1O (stereo partly drawn) [XII, Cyclohexyl cannabidiolate] −

----------
Target: UniProt:P34972
Experiment: Competition binding study with [3H]-CP55940 in CB2 receptor transfected cell membranes
Set-up: purchased RBXCB2M400UA; host or cells: human cells (transfected)
Conditions: ratio of Ki values
Criterion: Ki (CB1): Ki (CB2) Selectivity for CB2 in comparison to CB1 (rounded) strictly less than 8. Met: 1 (yes). Not met: 0 (no).

Look over these answered cases.
Here's an entry: C=C(C)[C@@H]1CCC(C)=CC1c1c(O)cc(CCCCC)c(C(=O)OCCCCCC)c1O (some centres unmarked) [XI, Hexyl cannabidiolate] . Is its Ki (CB1): Ki (CB2) Selectivity for CB2 in comparison to CB1 (rounded) below 8? 1 (yes)

Another compound: C=C(C)[C@@H]1CCC(C)=C[C@H]1c1c(O)cc(CCCCC)c(C(=O)OCCO)c1O [Compound III, 2-hydroxyethyl cannabidiolate] 0 (no)

And the next one, C=C(C)[C@@H]1CCC(C)=CC1c1c(O)cc(CCCCC)c(C(=O)OCCNS(C)(=O)=O)c1O (some centres unmarked) [XIII, N-Methyl-sulfonyl cannabidiolate] ? 0 (no)

Now for another entry.
Report whether reported Ki (CB1): Ki (CB2) Selectivity for CB2 in comparison to CB1 (rounded) is lower than 8 (strictly) for C=C(C)[C@@H]1CCC(C)=CC1c1c(O)cc(CCCCC)c(C(=O)OC2CCCCC2)c1O (some centres unmarked) [XII, Cyclohexyl cannabidiolate] 0 (no)
